System: croton oil induced ear edema
Assay: Croton oil induced ear swelling, 3 hours post sensitization (Example 1)
Assay type: in vivo, Mice/Balb/c
Details: topical 1 hour prior to and 2 hours post sensitization; Amitriptyline, Topiramate, Moclobimide 2 mg/ml; PEA, CBD 5 mg/ml; Hydrocortisone 600 nmol/ear
measurement-type: Mean Group Ear Swelling (mm) 3 Hours Post Croton Oil MEAN
The response must be a number in mm with no trailing unit.

Below, 3 molecules whose answers are already recorded.
molecule="O=C(NCCN1CCOCC1)c1ccc(Cl)cc1 [Moclobimide, moclobemide]" readout_units=mm numeric_value=0.265
molecule="CC1(C)O[C@@H]2[C@@H](CO[C@@]3(COS(N)(=O)=O)OC(C)(C)O[C@@H]23)O1 [Topiramate, topiramate]" readout_units=mm numeric_value=0.243
molecule="C[C@]12CCC(=O)C=C1CC[C@@H]1[C@@H]2[C@@H](O)C[C@@]2(C)[C@H]1CC[C@]2(O)C(=O)CO [Hydrocortisone, hydrocortisone]" readout_units=mm numeric_value=0.243

Challenge: Please report the recorded Mean Group Ear Swelling (mm) 3 Hours Post Croton Oil MEAN for CCCCCCCCCCCCCCCC(=O)NCCO [PEA, N-(2-hydroxyethyl)hexadecanamide] .
Response given: 0.268
